test system: E. coli AG100; experiment: Broth microdilution MIC in CAMHB; format: cell-based; settings: Escherichia coli; E. coli AG100 (wild-type parent); MHB; read-out: Minimum Inhibitory Concentration, E. coli AG100
observable: MIC

See these solved cases before continuing.
compound	measured_result
NCCCN1CCN(C(=O)N[C@@H](C(=O)N[C@H]2Cc3cccc(C(=O)O)c3OB2O)c2cccc(NS(N)(=O)=O)c2)C(=O)C1=O [Example 117]	32 to 64 µg/mL
NCCN1CCN(C(=O)N[C@@H](C(=O)N[C@H]2Cc3cccc(C(=O)O)c3OB2O)c2cc(F)c(O)c(F)c2F)C(=O)C1=O (single isomer, unassigned) [Example 168]	8 to 16 µg/mL
O=C(O)c1cccc2c1OB(O)[C@@H](NC(=O)C(NC(=O)N1CCNC1=O)c1c(F)cc(O)cc1F)C2 (some centres unmarked) [Example 156]	32 to 64 µg/mL
NS(=O)(=O)Nc1cccc([C@H](NC(=O)N2CCN(CC(F)(F)F)C(=O)C2=O)C(=O)N[C@H]2Cc3cccc(C(=O)O)c3OB2O)c1 (single isomer, unassigned) [Example 216]	> 128 µg/mL
NCCN1CCN(C(=O)N[C@@H](C(=O)N[C@H]2Cc3cccc(C(=O)O)c3OB2O)c2ccc(C(=O)O)cc2)C(=O)C1=O (single isomer, unassigned) [Example 84]	8 to 16 µg/mL
CCN1CCN(C(=O)NC(C(=O)N[C@H]2Cc3ccc(SCCNCCN)c(C(=O)O)c3OB2O)c2csc(N)n2)C(=O)C1=O (some centres unmarked) [Example 66]	> 128 µg/mL
CCN1CCN(C(=O)NC(C(=O)N[C@H]2Cc3cccc(C(=O)O)c3OB2O)c2ccc(C(=O)O)c(F)c2)C(=O)C1=O (some centres unmarked) [Example 31]	32 to 64 µg/mL
NCCN1CCN(C(=O)N[C@H](C(=O)N[C@H]2Cc3cccc(C(=O)O)c3OB2O)c2ccc(C(=O)O)cc2)C(=O)C1=O (single isomer, unassigned) [Example 83]	32 to 64 µg/mL

Param readout= MIC; system= E. coli AG100; entry= CCN1CCN(C(=O)NC(C(=O)N[C@H]2Cc3cccc(C(=O)O)c3OB2O)c2ccc(O)c(NS(N)(=O)=O)c2)C(=O)C1=O (some centres unmarked) [Example 30] ; returns value.
32 to 64 µg/mL

Param readout= MIC; system= E. coli AG100; entry= CCN1CCN(C(=O)NC(C(=O)N[C@H]2Cc3cccc(C(=O)O)c3OB2O)c2ccc(O)c(NC(C)=O)c2)C(=O)C1=O (some centres unmarked) [Example 17] ; returns value.
> 128 µg/mL

Param readout= MIC; system= E. coli AG100; entry= CCN1CCN(C(=O)NC(C(=O)N[C@H]2Cc3cccc(C(=O)O)c3OB2O)c2c(F)cc(N)cc2F)C(=O)C1=O (some centres unmarked) [Example 181] ; returns value.
32 to 64 µg/mL
